This collection of values is drawn from patent US11377418B2.

System: influenza A H1N1 (A/PR/8/34 virus)
Assay: cytopathic effect (CPE) inhibition assay in MDCK cells
Format: cell-based
Conditions: Influenza A virus, MDCK, 48 h
Returns: string. Value is condition met if measured IC50 is below 30 µM, and condition not met if it is greater than or equal to it.

- O=C(N[C@@H](Cc1ccc(F)cc1)C(=O)N[C@H](CO)Cc1ccccc1)c1ccccc1: condition met
- O=C(N[C@@H](Cc1ccccc1)C(=O)N[C@H](CO)Cc1ccc(F)cc1)c1ccccc1: condition met
- CC(=O)OC[C@H](Cc1ccccc1)NC(=O)[C@H](Cc1ccccc1)NC(=O)c1ccc(F)cc1: condition not met
- CC(=O)OC[C@H](Cc1ccc(F)cc1)NC(=O)[C@H](Cc1ccccc1)NC(=O)c1ccc(F)cc1: condition met
- O=C(N[C@@H](Cc1ccccc1)C(=O)N[C@H](CO)Cc1ccccc1)c1ccc(F)cc1: condition not met
- O=C(N[C@@H](Cc1ccc(F)cc1)C(=O)N[C@H](CO)Cc1ccc(F)cc1)c1ccccc1: condition met
- O=C(N[C@@H](Cc1ccccc1)C(=O)N[C@H](CO)Cc1ccccc1)c1ccccc1 [Compound 9, reference compound]: condition not met
- CC(=O)OC[C@H](Cc1ccc(F)cc1)NC(=O)[C@H](Cc1ccc(F)cc1)NC(=O)c1ccccc1: condition met
- CC(=O)OC[C@H](Cc1ccccc1)NC(=O)[C@H](Cc1ccccc1)NC(=O)c1ccccc1 [Compound 1, reference compound]: condition not met
- O=C(N[C@@H](Cc1ccc(F)cc1)C(=O)N[C@H](CO)Cc1ccccc1)c1ccc(F)cc1: condition met
- O=C(N[C@@H](Cc1ccccc1)C(=O)N[C@H](CO)Cc1ccc(F)cc1)c1ccc(F)cc1: condition not met
- CC(=O)OC[C@H](Cc1ccccc1)NC(=O)[C@H](Cc1ccc(F)cc1)NC(=O)c1ccc(F)cc1: condition not met
